test: Drug degradation in methanol after 10 hrs at 50 degC by HPLC analysis; format: physicochemical; conditions: read-out: Drug degradation
Listed here: items and their measured degraded at 10 h.
Note: unit % is implicit; provide only the numeric part.

Consider the following illustrative entries.
compound | degraded at 10 h, %
COc1ccc(SC(=S)NCC/C=C/[S+](C)[O-])cc1 (centres undefined) | 25
C[S+]([O-])/C=C/CCN=C=S (centres undefined) | 60

For the next question, use this compound.
Problem: Recorded degraded at 10 h for C[S+]([O-])CCCCN=C=S (centres undefined) , please?
Solution: 60

----------
assay: Stability of the compound in methanol:water (1:1) up to 12 hrs by HPLC analysis; format: physicochemical
metric: Stability

compound | experimental_result
COc1ccc(SC(=S)NCC/C=C/[S+](C)[O-])cc1 (centres undefined) | Unstable
CC(=O)NCCSC(=S)NCCCC[S+](C)[O-] (centres undefined) | Stable
COc1ccc(SC(=S)NCCCC[S+](C)[O-])cc1 (centres undefined) | Unstable
CC(=O)NCCSC(=S)NCC/C=C/[S+](C)[O-] (centres undefined) | Stable

----------
test: Stability of the compound in acetonitrile up to 12 hrs by HPLC analysis; assay type: physicochemical
metric: Stability

molecule | metric | experimental_result
CC(=O)NCCSC(=S)NCC/C=C/[S+](C)[O-] (centres undefined) | Stability | Stable
COc1ccc(SC(=S)NCC/C=C/[S+](C)[O-])cc1 (centres undefined) | Stability | Unstable
CC(=O)NCCSC(=S)NCCCC[S+](C)[O-] (centres undefined) | Stability | Stable
COc1ccc(SC(=S)NCCCC[S+](C)[O-])cc1 (centres undefined) | Stability | Unstable

Data origin: ChEMBL document CHEMBL4261604
